All values here come from ChEMBL document CHEMBL1130494.

# experimental system: Neuromedin-K receptor (Homo sapiens, UniProt P29371)
# Sequence (P29371 whole entry): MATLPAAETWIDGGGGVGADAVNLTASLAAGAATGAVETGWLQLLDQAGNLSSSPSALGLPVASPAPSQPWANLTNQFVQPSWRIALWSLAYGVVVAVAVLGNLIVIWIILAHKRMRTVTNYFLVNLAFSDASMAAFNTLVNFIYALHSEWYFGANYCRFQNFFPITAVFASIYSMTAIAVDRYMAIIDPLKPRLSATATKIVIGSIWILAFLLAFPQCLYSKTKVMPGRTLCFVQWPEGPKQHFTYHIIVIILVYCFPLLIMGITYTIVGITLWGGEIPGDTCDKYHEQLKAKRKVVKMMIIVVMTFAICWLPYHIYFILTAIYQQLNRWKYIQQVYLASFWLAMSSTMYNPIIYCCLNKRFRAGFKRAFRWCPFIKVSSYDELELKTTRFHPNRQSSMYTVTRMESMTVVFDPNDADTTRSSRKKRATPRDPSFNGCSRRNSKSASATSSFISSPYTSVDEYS
# assay name: Concentration required for binding affinity to Tachykinin receptor 3 in chinese hamster ovary cells
metric: pIC50
For clarity, pIC50 is expressed as the negative log10 of concentration in mol/L.

Q: What does the data say about its pIC50? Entry: CC(C)OC(=O)N[C@@H](Cc1c[nH]c2ccccc12)C(=O)NCCc1c[nH]c2ccccc12
Result: 5.03

###

Hi! I'm sharing some Ki results obtained with Neuromedin-B receptor (Homo sapiens, UniProt P28336).
Sequence (P28336 whole entry): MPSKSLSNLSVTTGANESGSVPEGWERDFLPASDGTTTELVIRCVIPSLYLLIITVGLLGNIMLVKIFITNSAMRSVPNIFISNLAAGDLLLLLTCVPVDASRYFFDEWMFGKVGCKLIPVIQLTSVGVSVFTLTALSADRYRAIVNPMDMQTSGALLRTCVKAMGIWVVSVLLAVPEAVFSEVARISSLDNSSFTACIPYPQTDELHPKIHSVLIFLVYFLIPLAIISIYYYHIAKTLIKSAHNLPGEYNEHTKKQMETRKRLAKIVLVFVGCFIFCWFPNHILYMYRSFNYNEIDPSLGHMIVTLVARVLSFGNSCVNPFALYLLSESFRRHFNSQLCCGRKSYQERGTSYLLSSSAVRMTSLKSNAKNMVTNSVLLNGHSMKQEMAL

Some solved cases for reference:
# given smiles, Ki
measured = [
    ("NCCCCCNC(=O)[C@H](Cc1c[nH]c2ccccc12)NC(=O)OCC(=O)O", "> 10 µM"),
    ("CC(C)OC(=O)N[C@@H](Cc1c[nH]c2ccccc12)C(=O)NCCc1ccccc1", "> 10 µM"),
    ("COC(=O)N[C@@H](Cc1c[nH]c2ccccc12)C(=O)NCCC(C)C", "> 10 µM"),
]

Q: Item CC(C)CCNC(=O)[C@H](Cc1c[nH]c2ccccc12)NC(=O)OCc1ccccc1 with Neuromedin-B receptor (Homo sapiens, UniProt P28336) - Ki?
Result: 6.1 µM

Q: Item CC(C)CNC(=O)[C@H](Cc1c[nH]c2ccccc12)NC(=O)OCc1c[nH]cn1 with Neuromedin-B receptor (Homo sapiens, UniProt P28336) - Ki?
Result: > 10 µM
